system: RARb:RXRa (NR concentration 270 nM, RXRa partner concentration 90 nM); experiment: PBM binding z-score (relative to random genomic background probes); higher = stronger binding; sequences stand for … in GC…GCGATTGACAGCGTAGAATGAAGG
ASSAY READOUT: PBM binding z-score
Returns: the value as a bare number; no unit string appended.

>>> experimental_value("GCATATAGGTAAAACAAGGTGAAAGTCCGATTGT")
0.432

Prompt: What value of PBM binding z-score on RARb:RXRa (NR concentration 270 nM, RXRa partner concentration 90 nM) does CCTAGTTAGTCAGGAGGTCACACACCGGATATGA have?
Completion: 3.69

Prompt: Request body: readout PBM binding z-score, system RARb:RXRa (NR concentration 270 nM, RXRa partner concentration 90 nM), query CCTACTGGGACAAAGGTCATTGATTCCAATGCTC . Return the value.
Completion: 4.45

Prompt: Value wanted: PBM binding z-score (RARb:RXRa (NR concentration 270 nM, RXRa partner concentration 90 nM)) of entry TTACCAAGGTGAAAGGTCGCTGATGCACGCCTTG
Completion: 3.12

Prompt: Param readout = PBM binding z-score; param system = RARb:RXRa (NR concentration 270 nM, RXRa partner concentration 90 nM); param query = CCTAGCAGGCCCATCTGGGTCACTCAAGGCTTGA ; response: value
Completion: 0.978

Prompt: Kindly state the measured PBM binding z-score obtained for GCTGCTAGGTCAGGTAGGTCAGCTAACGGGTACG with RARb:RXRa (NR concentration 270 nM, RXRa partner concentration 90 nM).
Completion: 3.87

Prompt: Recorded PBM binding z-score for TCGAGTAGGTTACCAAAGGGGCATTCAGCTTTCT with RARb:RXRa (NR concentration 270 nM, RXRa partner concentration 90 nM), please?
Completion: 1.37

Prompt: Give RARb:RXRa (NR concentration 270 nM, RXRa partner concentration 90 nM) PBM binding z-score for TCTAGCAGGCCAGAGGGACACTCAAGAGGTACGG
Completion: 0.0919

Prompt: # value lookup — system RARb:RXRa (NR concentration 270 nM, RXRa partner concentration 90 nM), readout PBM binding z-score, item TCGAGTAGGTTACCAATGGGGCATTGAGCTTTCT
Completion: 0.917

Prompt: Provide value of PBM binding z-score for this record tested with RARb:RXRa (NR concentration 270 nM, RXRa partner concentration 90 nM): CGTCAAAGTTCAACTATGGTAACGTAAAGCACGC
Completion: 5.33

Prompt: # query: PBM binding z-score | item TCTTGTAGATCCGCAGGTTAAGAAAGCTGGCCAA | system: RARb:RXRa (NR concentration 270 nM, RXRa partner concentration 90 nM)
Completion: 0.136

Prompt: Give RARb:RXRa (NR concentration 270 nM, RXRa partner concentration 90 nM) PBM binding z-score for CCTTACGGCTCAAGGTTATAGCACGGGTGGTACG
Completion: 0.562

###

system: LXRa homodimer (NR concentration 270 nM); experiment: PBM binding z-score (relative to random genomic background probes); higher = stronger binding; sequences stand for … in GC…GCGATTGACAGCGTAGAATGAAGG
ASSAY READOUT: PBM binding z-score
// return just the number, without any unit appended

Prompt: What value of PBM binding z-score has been recorded for this entry: CCTATTAGTTGACCATAAGGGCAAACGAAGCTCG
Completion: 0.545

Prompt: Data request, read-out PBM binding z-score, for ACTAGCAGGCCAAGGGTCACCCAAGATTAGTCCG
Completion: 0.036

Prompt: Which PBM binding z-score is listed for GCGCCTGGGGCATCAGCAGGTTACCATAACTTAA ?
Completion: -0.446

Prompt: // PBM binding z-score lookup, key: CCTACTGGGCCACGAAAGGTCATCGATTCAGTGA
Completion: 4.54

Prompt: Item under review: CTTAGCAGGCCAATCTGGGTCACTCAAGGCTTGA . Reported PBM binding z-score?
Completion: -0.362

Prompt: Query: PBM binding z-score; subject: GATACAGGGTCAGCTAGAGCCCAGAGTATGGAAA
Completion: -0.499
